Tested on: RIVA
EXPERIMENT SUMMARY: growth inhibition by drug plus 177Lu-lilotomab satetraxetan (1 - RLU/untreated control) (fraction); higher = stronger inhibition
CONDITION SUMMARY: 10 nM; time (day): 4; 177Lu-lilotomab satetraxetan 0.5 ug/ml
PROPERTY: growth inhibition by drug plus 177Lu-lilotomab satetraxetan

| COMPOUND | VAL |
| --- | --- |
| Cc1cnc(-c2cnc(NCCNc3ccc(C#N)cn3)nc2-c2ccc(Cl)cc2Cl)[nH]1 | 0.598 |
| CCOc1ccc(Nc2nc(-c3c(C)nc4ccccn34)cs2)cc1 | 0.602 |
| CC(C)Oc1cc(Nc2nc(N[C@@H](C)c3ccc(F)cn3)ncc2Cl)n[nH]1 | 0.642 |
| COc1cc2nccc(Oc3ccc(NC(=O)NC4CC4)c(Cl)c3)c2cc1C(N)=O [E7080 (Lenvatinib)] | 0.478 |
| Nc1nc2[nH]cc(CCc3ccc(C(=O)N[C@@H](CCC(=O)O)C(=O)O)cc3)c2c(=O)[nH]1 [Pemetrexed] | 0.458 |
| Cc1ccc(NC(=O)c2cccc(C(C)(C)C#N)c2)cc1Nc1ccc2ncn(C)c(=O)c2c1 | 0.622 |
